Source listed as patent EP1184374A1.

IC50 overview
Biological target: GPIIb/IIIa (Homo sapiens, UniProt P05106+P08514)
Sequence (P08514 32-887 limits assumed): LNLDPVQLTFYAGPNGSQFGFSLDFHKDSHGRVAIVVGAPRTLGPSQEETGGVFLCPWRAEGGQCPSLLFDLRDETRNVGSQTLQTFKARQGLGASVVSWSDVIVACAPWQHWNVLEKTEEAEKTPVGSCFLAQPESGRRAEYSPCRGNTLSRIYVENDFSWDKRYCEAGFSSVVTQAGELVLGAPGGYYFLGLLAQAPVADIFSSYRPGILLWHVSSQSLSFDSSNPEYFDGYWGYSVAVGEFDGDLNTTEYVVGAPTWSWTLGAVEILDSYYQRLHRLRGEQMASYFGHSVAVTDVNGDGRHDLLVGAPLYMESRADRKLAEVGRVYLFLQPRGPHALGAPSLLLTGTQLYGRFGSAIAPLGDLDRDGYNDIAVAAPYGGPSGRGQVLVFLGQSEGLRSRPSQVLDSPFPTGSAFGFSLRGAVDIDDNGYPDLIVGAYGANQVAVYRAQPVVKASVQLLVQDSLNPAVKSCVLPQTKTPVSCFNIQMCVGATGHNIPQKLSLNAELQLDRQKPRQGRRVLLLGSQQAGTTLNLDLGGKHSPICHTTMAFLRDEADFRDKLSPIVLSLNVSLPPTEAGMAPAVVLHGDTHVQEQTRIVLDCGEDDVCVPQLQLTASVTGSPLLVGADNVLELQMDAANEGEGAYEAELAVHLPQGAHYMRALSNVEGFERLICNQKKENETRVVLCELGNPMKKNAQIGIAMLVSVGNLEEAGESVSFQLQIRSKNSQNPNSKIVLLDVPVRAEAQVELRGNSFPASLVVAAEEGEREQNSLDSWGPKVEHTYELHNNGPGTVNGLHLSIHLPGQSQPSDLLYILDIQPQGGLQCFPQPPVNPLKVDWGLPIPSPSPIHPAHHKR
Sequence (P08514 891-1039 partner limits assumed): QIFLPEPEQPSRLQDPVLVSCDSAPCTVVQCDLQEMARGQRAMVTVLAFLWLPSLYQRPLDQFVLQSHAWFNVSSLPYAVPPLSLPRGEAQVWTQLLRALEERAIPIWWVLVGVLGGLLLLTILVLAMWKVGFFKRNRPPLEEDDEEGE
Sequence (P05106 27-788): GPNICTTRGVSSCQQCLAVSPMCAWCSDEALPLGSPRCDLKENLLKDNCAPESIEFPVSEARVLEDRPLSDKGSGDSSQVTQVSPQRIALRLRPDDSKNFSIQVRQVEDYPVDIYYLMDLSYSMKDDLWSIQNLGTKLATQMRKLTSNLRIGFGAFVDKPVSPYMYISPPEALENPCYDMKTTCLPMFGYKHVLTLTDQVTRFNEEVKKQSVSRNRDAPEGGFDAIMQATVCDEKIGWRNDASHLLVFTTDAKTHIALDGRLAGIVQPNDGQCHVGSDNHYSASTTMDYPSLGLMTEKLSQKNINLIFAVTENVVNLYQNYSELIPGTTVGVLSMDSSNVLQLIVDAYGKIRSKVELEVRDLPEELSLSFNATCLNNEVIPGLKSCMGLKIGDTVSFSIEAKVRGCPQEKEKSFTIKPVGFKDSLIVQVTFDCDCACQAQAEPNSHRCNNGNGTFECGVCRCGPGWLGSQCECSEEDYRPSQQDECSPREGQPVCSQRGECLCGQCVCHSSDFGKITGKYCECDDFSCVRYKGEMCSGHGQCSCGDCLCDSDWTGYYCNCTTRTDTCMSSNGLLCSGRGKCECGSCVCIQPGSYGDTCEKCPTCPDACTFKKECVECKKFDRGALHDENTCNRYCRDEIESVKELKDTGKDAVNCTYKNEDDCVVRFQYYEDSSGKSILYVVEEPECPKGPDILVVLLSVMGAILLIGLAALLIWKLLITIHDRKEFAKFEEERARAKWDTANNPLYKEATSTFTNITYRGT
Assay: In vitro solid phase purified glycoprotein IIb/IIIa binding assay (biotinylated fibrinogen binding)

Previously resolved entries follow.
[[record]]
molecule = "CC(CC(=O)O)NC(=O)C1CCN(C(=O)CCC2CCNCC2)CC1 (centres unmarked) [Compound 5]"
target_or_system = "GPIIb/IIIa (Homo sapiens, UniProt P05106+P08514)"
observed_value = "12 nM"

[[record]]
molecule = "CN1CCN(CCC(=O)N2CCCC(C(=O)NC(CC(=O)O)c3ccc4c(c3)OCO4)C2)CC1 (centres unmarked) [Compound 14]"
target_or_system = "GPIIb/IIIa (Homo sapiens, UniProt P05106+P08514)"
observed_value = "4 nM"

[[record]]
molecule = "O=C(O)CC(NC(=O)C1CCCN(C(=O)CCC2CCNCC2)C1)c1ccc2c(c1)OCO2 (centres unmarked) [Compound 16]"
target_or_system = "GPIIb/IIIa (Homo sapiens, UniProt P05106+P08514)"
observed_value = "0.5 nM"

[[record]]
molecule = "CN1CCC(CCC(=O)N2CCCC(C(=O)NCCC(=O)O)C2)CC1 (centres unmarked) [Compound 7]"
target_or_system = "GPIIb/IIIa (Homo sapiens, UniProt P05106+P08514)"
observed_value = "6 nM"


# evaluate next
Ask | Requested field: IC50. Item: C[Si](C)(C)C#CC(CC(=O)O)NC(=O)C1CCCN(C(=O)CCC2CCNCC2)C1 (centres unmarked) [Compound 9]
Reply | 2 nM

---

inhibition at 50 µM: recorded values
Target: GPIIb/IIIa (Homo sapiens, UniProt P05106+P08514)
Experiment: In vitro solid phase purified glycoprotein IIb/IIIa binding assay (biotinylated fibrinogen binding)
Conditions: read-out: Fibrinogen Binding % Inh. (50 µM)
Entry rule: numbers only, all in %.

Consider the worked cases shown below.
[[record]]
molecule = "O=C(O)C[C@H](NC(=O)[C@@H]1CCCN(C(=O)CCC2CCNCC2)C1)c1cncc(Br)c1 [Compound 32]"
assay_metric = "inhibition at 50 µM"
observed_value = 100

[[record]]
molecule = "O=C(Nc1ccc2ccccc2c1)N[C@@H](CNC(=O)[C@@H]1CCCN(C(=O)CCC2CCNCC2)C1)C(=O)O [Compound 28]"
assay_metric = "inhibition at 50 µM"
observed_value = 100

[[record]]
molecule = "NCCCCCC(=O)N1CCCC(C(=O)NC(CC(=O)O)c2cccnc2)C1 (centres unmarked) [Compound 10]"
assay_metric = "inhibition at 50 µM"
observed_value = 91.3

[[record]]
molecule = "COc1cccc(NC(=O)N[C@@H](CNC(=O)[C@@H]2CCCN(C(=O)CCC3CCNCC3)C2)C(=O)O)c1 [Compound 22]"
assay_metric = "inhibition at 50 µM"
observed_value = 100

[[record]]
molecule = "O=C(O)CC(NC(=O)C1CCCCN(C(=O)CCC2CCNCC2)C1)c1cnc2ccccc2c1 (centres unmarked) [Compound 17]"
assay_metric = "inhibition at 50 µM"
observed_value = 96

[[record]]
molecule = "O=C(O)C[C@H](NC(=O)[C@@H]1CCCN(C(=O)CCC2CCNCC2)C1)c1cnc2ccccc2c1 [Compound 18]"
assay_metric = "inhibition at 50 µM"
observed_value = 100

[[record]]
molecule = "N=CN1CCC(CCC(=O)N2CCCC(C(=O)NC(CC(=O)O)c3cccnc3)C2)CC1 (centres unmarked) [Compound 33]"
assay_metric = "inhibition at 50 µM"
observed_value = 100


Ask | What inhibition at 50 µM appears in the records for this molecule with GPIIb/IIIa (Homo sapiens, UniProt P05106+P08514)? O=C(O)C[C@H](NC(=O)C1CCCN(CCCC2CCNCC2)C1)c1ccc2c(c1)OCO2 (some centres unmarked) [Compound 20]
Reply | 99
